Values were extracted from patent US20110313032A1.

Target: type II dehydroquinase from Helicobacter pylori (Helicobacter pylori)
Sequence (Q48255 1-167): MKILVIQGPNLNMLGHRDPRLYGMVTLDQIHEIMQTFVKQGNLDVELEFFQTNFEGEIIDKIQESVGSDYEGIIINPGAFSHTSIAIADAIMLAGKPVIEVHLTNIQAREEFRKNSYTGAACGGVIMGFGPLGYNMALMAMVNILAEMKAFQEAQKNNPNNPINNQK
Test: Inhibition of type II dehydroquinase from Helicobacter pylori (Ki)
Format: biochemical
Settings: pH = 7.0, 25° C., 50 mM Tris•HCl; read-out: Inhibition constants Ki, H. pylori
Method: Effect of compounds of formula I of the invention on the catalytic activity of the type II dehydroquinase from various sources. The inhibitory potency of compounds I of the invention against type II dehydroquinases from Mycobacterium tuberculoris, Streptomyces coelicolor and Helicobacter pylori were assayed as it is described in the following articles: 1) Sanchez-Sixto, C.; Prazeres, V. F. V.; Castedo, L.; Lamb, H.; Hawkins, A. R.; Gonzalez-Bello, C. […]
Measure: pKi
In plain terms, pKi is the concentration in mol/L turned into minus its base-10 logarithm.

Answered examples (3):
> print(dat)
                                   compound                           target.of.assay  data.value
1  O=C1[C@@H](O)[C@H](O)C[C@](O)(C(=O)O)[C@@H]1Cc1ccccc1 [(2S)-Ia-3, (2S)-2-benzyl-3-dehydroquinic acid]  type II dehydroquinase from Helicobacter pylori (Helicobacter pylori)        5.93
2  CCCC1C(=O)C(O)C(O)CC1(O)C(=O)O [(2R)-Ia-2, (2R)-2-propyl-3-dehydroquinic acid]  type II dehydroquinase from Helicobacter pylori (Helicobacter pylori)        4.70
3  O=C1[C@@H](O)[C@H](O)C[C@](O)(C(=O)O)[C@H]1Cc1ccccc1 [(2R)-Ia-3, (2R)-2-benzyl-3-dehydroquinic acid]  type II dehydroquinase from Helicobacter pylori (Helicobacter pylori)        5.85

// recorded pKi for O=C1C(O)C(O)CC(O)(C(=O)O)C1Cc1ccc2sccc2c1 (single isomer, unassigned) [(2S)-Ia-7] : 6.05

// recorded pKi for `O=C(O)[C@@]1(O)C[C@@H](O)[C@H](O)C(OCc2cccs2)=C1Cc1cccs1` : 4.82

// recorded pKi for Cc1ccc(CC2C(=O)C(O)C(O)CC2(O)C(=O)O)cc1 (single isomer, unassigned) [(2R)-Ia-4] : 6.60

// recorded pKi for `O=C(O)[C@]1(O)C=C(OCc2cc3ccccc3s2)[C@@H](O)[C@H](O)C1` : 6.80

// recorded pKi for C=CC[C@H]1C(=O)[C@@H](O)[C@H](O)C[C@]1(O)C(=O)O [(2R)-Ia-1, (2R)-2-allyl-3-dehydroquinic acid] : 5.03

// recorded pKi for COc1ccc(CC2C(=O)C(O)C(O)CC2(O)C(=O)O)cc1 (single isomer, unassigned) : 6.77

// recorded pKi for O=C(O)C1(O)CC(O)C(O)C(OCc2cc3ccccc3s2)=C1Cc1cc2ccccc2s1 (stereo not drawn) : 6.85

// recorded pKi for Cc1ccc(CC2C(=O)C(O)C(O)CC2(O)C(=O)O)cc1 (single isomer, unassigned) [(2S)-Ia-4] : 6.01

// recorded pKi for `Cc1ccc2sc(COC3=C[C@@](O)(C(=O)O)C[C@@H](O)[C@@H]3O)cc2c1` : 7.01
